- Tested on: PyIESI-1 RRM domain (Plasmodium yoelii PY17X_0911200 aa 795-956, GST fusion)
- assay explanation: RBNS R-value (6-mer enrichment in protein-bound RNA vs input library) (ratio); higher = stronger binding preference
- test conditions: protein concentration: 250 nM
In all, about 4,100 sequences were measured (“RBNS R-value (6-mer enrichment in protein-bound RNA vs input library)”: median about 0.96, highest 2% from about 2.4 on). What follows is part of a selection rich in the highest values, with near analogues and random picks from the rest.
Binary classification by RBNS R-value, with 1 as an inclusive lower bound for rule met; all other cases are rule not met.

Study these solved cases before continuing.
AGAUAG; rule met
UGCGCU; rule met
GAGGCA; rule met
GGAUAC; rule not met
CGGGUA; rule not met
AGCCUG; rule met
AUAGUC; rule not met
UCGCGU; rule not met

Ask: Tell me whether RBNS R-value is at least 1 here: GAUAAU
Reply: rule met

Ask: Tell me whether RBNS R-value is at least 1 here: AGGCUU
Reply: rule not met

* * *

- Tested on: PyIESI-1 RRM domain (Plasmodium yoelii PY17X_0911200 aa 795-956, GST fusion)
- assay explanation: RBNS R-value (6-mer enrichment in protein-bound RNA vs input library) (ratio); higher = stronger binding preference
- test conditions: protein concentration: 250 nM
In all, about 4,100 sequences were measured (“RBNS R-value (6-mer enrichment in protein-bound RNA vs input library)”: median about 0.96, highest 2% from about 2.4 on). This is one part of a sample in which the highest values are shown more often than they occur.
Binary classification by RBNS R-value, with 2 as an inclusive lower bound for Y; all other cases are N.

Study these solved cases before continuing.
CGGAGC; N
UAUGAU; Y
CGAAUG; N
CAUGAU; Y
AUUUGG; N
UGAUCG; N
CACCUG; N
CCGAUA; N

Ask: Tell me whether RBNS R-value is at least 2 here: GAUCAG
Reply: N

Ask: Tell me whether RBNS R-value is at least 2 here: CUGACC
Reply: N

Ask: Tell me whether RBNS R-value is at least 2 here: CGAACC
Reply: N

Ask: Tell me whether RBNS R-value is at least 2 here: AUGAGA
Reply: N

Ask: Tell me whether RBNS R-value is at least 2 here: GGGUGU
Reply: N

* * *

- Test system: PyIESI-1 RRM domain (Plasmodium yoelii PY17X_0911200 aa 795-956, GST fusion)
- assay explanation: RBNS R-value (6-mer enrichment in protein-bound RNA vs input library) (ratio); higher = stronger binding preference
- test conditions: protein concentration: 500 nM
The full ranking holds about 4,100 sequences; the median of “RBNS R-value (6-mer enrichment in protein-bound RNA vs input library)” is about 0.96, and the highest 2% start at about 2.4. For the sample, the highest values were picked, then their nearest neighbours and some sequences at random.
parameter measured: RBNS R-value
Give bare numbers.

Below are worked cases with known answers.
AAGGCU; 0.991
GGGCCG; 1.01
UGAUCC; 2.6

State recorded RBNS R-value for all listed sequences.
1. ACAUCG
2. CUUGAC
3. GGUUCG
4. AAUUGU
5. AUUGAG
6. AAUCCC

Reply:
1. 0.777
2. 1.59
3. 0.904
4. 0.836
5. 1.24
6. 0.955

State recorded RBNS R-value for all listed sequences.
1. GAUUGA
2. CUUGAA
3. GAUUGU
4. AUUGAU
5. CUUGAU
6. UCCCAA
7. AGAUAG

Reply:
[3.03, 1.17, 1.5, 5.29, 4.7, 0.967, 1.1]

* * *

Hi there, I'd appreciate the recorded RBNS R-value for every entry that follows.
- Test system: PyIESI-1 RRM domain (Plasmodium yoelii PY17X_0911200 aa 795-956, GST fusion)
- assay explanation: RBNS R-value (6-mer enrichment in protein-bound RNA vs input library) (ratio); higher = stronger binding preference
- test conditions: protein concentration: 1000 nM
Over roughly 4,100 sequences, “RBNS R-value (6-mer enrichment in protein-bound RNA vs input library)” has its median near 0.96; the highest 2% begin near 2.4. Only a selection was taken, and the highest values are over-represented in it overall.

Below are worked cases with known answers.
CAUUGA; 2.24
CAGUUC; 0.843
GAUUGC; 2.87
AAUGAA; 1.02
GAUCAG; 1.26
UGAUUG; 4.94
GCUGAU; 3.79
ACGAAU; 0.865

State recorded RBNS R-value for all listed sequences.
1. UCCAGG
2. UAUUUA
3. GAUAAU
4. UAUUGA
5. AAUUGU

Reply:
1. 1
2. 0.418
3. 1.86
4. 1.65
5. 0.821

State recorded RBNS R-value for all listed sequences.
1. CAUUUG
2. GGUGAA
3. UAUGAC
4. GCUGAG
5. GAUUGU

Reply:
[1.38, 0.954, 0.974, 1.15, 1.51]

* * *

- Tested on: PyIESI-1 RRM domain (Plasmodium yoelii PY17X_0911200 aa 795-956, GST fusion)
- assay explanation: RBNS R-value (6-mer enrichment in protein-bound RNA vs input library) (ratio); higher = stronger binding preference
- test conditions: protein concentration: 1000 nM
Whole data set: some 4,100 sequences, median “RBNS R-value (6-mer enrichment in protein-bound RNA vs input library)” near 0.96, cut for the highest 2% near 2.4. The sample holds the highest values, similar sequences and a random draw of the others, so the mix is not that of the screen.
Binary classification by RBNS R-value, with 1 as an inclusive lower bound for 1; all other cases are -1.

Study these solved cases before continuing.
GAGGCA; 1
UAUCAG; -1
AGAUGG; 1
CUUGAA; 1
UGAUCU; 1
CGAUCC; 1
GCGACC; 1
CAUGUC; -1
CACCUG; 1
GGAUGA; 1

# ---- query sequence ----
Ask: Tell me whether RBNS R-value is at least 1 here: AAUUAG
Reply: -1

* * *

- Test system: PyIESI-1 RRM domain (Plasmodium yoelii PY17X_0911200 aa 795-956, GST fusion)
- assay explanation: RBNS R-value (6-mer enrichment in protein-bound RNA vs input library) (ratio); higher = stronger binding preference
- test conditions: protein concentration: 250 nM
In all, about 4,100 sequences were measured (“RBNS R-value (6-mer enrichment in protein-bound RNA vs input library)”: median about 0.96, highest 2% from about 2.4 on). The entries come from a sample that favours the highest values as a whole.
Hi there, I'd appreciate the recorded RBNS R-value for every entry that follows.
Numbers only.

State recorded RBNS R-value for all listed sequences.
1. CAAGGA
2. CAGAUA

Reply:
1: 1; 2: 0.96

State recorded RBNS R-value for all listed sequences.
1. CGAUGA
2. AUACCA
3. UCGAAU
4. UGAUUU
5. UGCUUU
6. CGAUAA

Reply:
1: 3.48; 2: 0.709; 3: 0.871; 4: 7.9; 5: 1.1; 6: 1.27

State recorded RBNS R-value for all listed sequences.
1. AAUUCC
2. ACUGCG
3. UGAUGA
4. CGAUGC

Reply:
1: 1.12; 2: 1.12; 3: 9.09; 4: 2.07

State recorded RBNS R-value for all listed sequences.
1. GAGGAC
2. UGAUUC
3. AUGAGC
4. GAUUCU
5. AAACAA
6. UAUGUA
7. GAUGAA

Reply:
1. 1.09
2. 6.24
3. 1.51
4. 2.89
5. 0.781
6. 0.585
7. 4.07

State recorded RBNS R-value for all listed sequences.
1. GCUGAU
2. CUAUUU
3. AGAUUC

Reply:
1: 3.92; 2: 0.653; 3: 1.47

State recorded RBNS R-value for all listed sequences.
1. CAGAUG
2. GUGAGA
3. CGAUAC
4. AGAUUA
5. GAUGAC
6. UCCUCG
7. CAUUCG
8. AAUGUU

Reply:
1: 1.85; 2: 1.03; 3: 1.26; 4: 1.09; 5: 3.66; 6: 0.965; 7: 1.01; 8: 0.8

State recorded RBNS R-value for all listed sequences.
1. GAUGUA
2. CUGAUG
3. AACUUC
4. UAGAUC
5. AUUCGG

Reply:
[2.51, 6.48, 0.893, 0.818, 1.21]

State recorded RBNS R-value for all listed sequences.
1. UCGGAA
2. GCGCAG

Reply:
0.911
1.01

* * *

- System: PyIESI-1 RRM domain (Plasmodium yoelii PY17X_0911200 aa 795-956, GST fusion)
- assay explanation: RBNS R-value (6-mer enrichment in protein-bound RNA vs input library) (ratio); higher = stronger binding preference; the methods of the paper give 50 / 100 / 500 nM protein instead
- test conditions: protein concentration: 250 nM
Over roughly 4,100 sequences, “RBNS R-value (6-mer enrichment in protein-bound RNA vs input library)” has its median near 0.96; the highest 2% begin near 2.4. The full list was thinned out, with the highest values kept by preference.
parameter measured: RBNS R-value
Answers are plain numbers.

GCGAUU; 2.19
GAUUGU; 1.51
GAACCU; 1.11
UAUGCA; 0.689
GAAUGC; 1.17
AUGAAU; 1.41

State recorded RBNS R-value for all listed sequences.
1. UAUGGC
2. UAUGCG

Reply:
1. 1.41
2. 0.859

State recorded RBNS R-value for all listed sequences.
1. GAUGCG
2. UCUUCC
3. CCGAUU

Reply:
[2.54, 0.978, 2.3]

State recorded RBNS R-value for all listed sequences.
1. UUUUGC
2. AGUCAG
3. ACAUUG
4. UGAUGG

Reply:
[1.25, 0.665, 1.19, 5.96]

State recorded RBNS R-value for all listed sequences.
1. GAUAGC
2. CUGAAC
3. AUUGAC
4. AAUGGG
5. UUUUGU

Reply:
1: 2.53; 2: 1.05; 3: 1.45; 4: 1.06; 5: 0.927
